# Target Or System: Transient receptor potential cation channel subfamily A member 1 (Rattus norvegicus)
# Experimental Details: Agonist activity at rat TRPA1 ion channel expressed in HEK293 cells assessed as calcium influx by fluo-4-Am-based fluorimetry relative to allyl isothiocyanate
# Assay type: functional, cell-based
Exercise: state measured Efficacy for each of the molecules provided.

Req: Fill blank: measured Efficacy of the molecule CC(C)c1cc(CCC(=O)CC(O)Cc2ccccc2)cc(C(C)C)c1O (configuration not stated) is ____.
Resp: < 10%

Req: Fill blank: measured Efficacy of the molecule O=C(CCc1ccc(O)cc1)CC(O)CCCCCCc1ccccc1 (configuration not stated) is ____.
Resp: < 10%

Req: Fill blank: measured Efficacy of the molecule CCCCCC(O)CC(=O)CCc1cc(C(C)C)c(O)cc1C (configuration not stated) is ____.
Resp: 78.2%

Req: Fill blank: measured Efficacy of the molecule CCCCCC(O)CC(=O)CCc1ccc2c(c1)OCO2 (configuration not stated) is ____.
Resp: < 10%

Req: Fill blank: measured Efficacy of the molecule Cc1cc(O)c(C(C)C)cc1CCC(=O)CC(O)CCCCCCc1ccccc1 (configuration not stated) is ____.
Resp: 163%

Req: Fill blank: measured Efficacy of the molecule CCCCCC(O)CC(=O)CCc1ccc(O)c(OC)c1 (racemic) is ____.
Resp: 11.4%

Req: Fill blank: measured Efficacy of the molecule COc1cc(CCC(=O)CC(O)Cc2ccccc2)ccc1O (configuration not stated) is ____.
Resp: < 10%
